Cited source for all entries: the supplement of paper PMC10065799

# assayedTarget: EPHB1 (UniProt P54762)
# Sequence (P54762 whole entry, looked up): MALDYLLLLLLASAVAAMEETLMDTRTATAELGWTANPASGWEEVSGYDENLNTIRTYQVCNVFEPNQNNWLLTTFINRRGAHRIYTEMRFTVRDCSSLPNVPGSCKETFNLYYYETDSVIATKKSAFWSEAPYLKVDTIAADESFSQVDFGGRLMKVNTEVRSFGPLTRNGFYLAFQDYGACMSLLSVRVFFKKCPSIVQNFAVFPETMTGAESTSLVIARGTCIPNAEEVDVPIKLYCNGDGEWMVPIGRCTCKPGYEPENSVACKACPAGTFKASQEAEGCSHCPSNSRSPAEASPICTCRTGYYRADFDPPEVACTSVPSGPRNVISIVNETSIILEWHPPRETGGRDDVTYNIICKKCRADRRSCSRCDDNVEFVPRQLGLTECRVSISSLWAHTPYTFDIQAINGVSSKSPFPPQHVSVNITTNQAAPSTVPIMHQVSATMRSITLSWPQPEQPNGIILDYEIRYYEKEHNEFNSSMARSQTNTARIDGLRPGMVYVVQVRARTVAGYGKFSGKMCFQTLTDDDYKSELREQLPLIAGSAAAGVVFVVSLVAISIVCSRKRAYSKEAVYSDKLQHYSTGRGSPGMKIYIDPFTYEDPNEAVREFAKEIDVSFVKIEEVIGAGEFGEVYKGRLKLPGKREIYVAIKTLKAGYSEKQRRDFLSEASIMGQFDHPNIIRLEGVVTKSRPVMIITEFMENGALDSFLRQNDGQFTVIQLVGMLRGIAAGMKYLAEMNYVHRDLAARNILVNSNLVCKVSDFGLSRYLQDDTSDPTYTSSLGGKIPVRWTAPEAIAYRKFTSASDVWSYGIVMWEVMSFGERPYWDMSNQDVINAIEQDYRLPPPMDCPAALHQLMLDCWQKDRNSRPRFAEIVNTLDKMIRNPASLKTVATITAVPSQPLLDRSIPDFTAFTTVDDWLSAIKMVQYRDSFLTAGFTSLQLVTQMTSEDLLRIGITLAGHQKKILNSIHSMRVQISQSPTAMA
# assayProtocol: phosphorylation enrichment, bacterial display (enrichment ratio); higher = better substrate or ligand; peptides without Tyr show the background;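 also: 11-residue human phosphosite peptides and single-mutation variants displayed on the E. coli surface, counted by deep sequencing, each peptide's frequency after selection divided by its frequency in the unselected input library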;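 also: frequency after pTyr selection over input frequency; kinase dosed for 20-30% of maximal phosphorylation in three min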
Would you kindly list phosphorylation enrichment for each of these sequences?
Answer with a number only.

So, LIYTNYEVGKD [GSTP1_Y112_A114V] ? Its phosphorylation enrichment was 13.4

So, RLVTRYIYNRE [HLA-DQB1_Y62_Y58L] ? Its phosphorylation enrichment was 0.443

So, ETKEDYEKILV [ANXA1_Y335_G333E] ? Its phosphorylation enrichment was 0.616

====

# assayedTarget: EPHB1 (UniProt P54762)
# assayProtocol: phosphorylation enrichment, bacterial display (enrichment ratio); higher = better substrate or ligand; peptides without Tyr show the background
measuredQuantity: phosphorylation enrichment

So, RRFSSYSQMEN [PKP1_Y120] ? Its phosphorylation enrichment was 0.984

So, DNACQYMLTDR [MYH7_Y164_Y162C] ? Its phosphorylation enrichment was 0.6

So, QPGDICHQTWA [GBA_Y244_Y244C] ? Its phosphorylation enrichment was 0.515

So, VFAADYFKLLG [ROR2_Y645_YF] ? Its phosphorylation enrichment was 0.52

So, ELTSKYRGGGG [HBA1_Y141_V136E] ? Its phosphorylation enrichment was 0.412
